- assay-system: Recombinant GST-TAG-MASTL (Homo sapiens, UniProt Q96GX5)
- Construct: GST; purchased Thermo Fisher Scientific
- Sequence (Q96GX5 whole entry): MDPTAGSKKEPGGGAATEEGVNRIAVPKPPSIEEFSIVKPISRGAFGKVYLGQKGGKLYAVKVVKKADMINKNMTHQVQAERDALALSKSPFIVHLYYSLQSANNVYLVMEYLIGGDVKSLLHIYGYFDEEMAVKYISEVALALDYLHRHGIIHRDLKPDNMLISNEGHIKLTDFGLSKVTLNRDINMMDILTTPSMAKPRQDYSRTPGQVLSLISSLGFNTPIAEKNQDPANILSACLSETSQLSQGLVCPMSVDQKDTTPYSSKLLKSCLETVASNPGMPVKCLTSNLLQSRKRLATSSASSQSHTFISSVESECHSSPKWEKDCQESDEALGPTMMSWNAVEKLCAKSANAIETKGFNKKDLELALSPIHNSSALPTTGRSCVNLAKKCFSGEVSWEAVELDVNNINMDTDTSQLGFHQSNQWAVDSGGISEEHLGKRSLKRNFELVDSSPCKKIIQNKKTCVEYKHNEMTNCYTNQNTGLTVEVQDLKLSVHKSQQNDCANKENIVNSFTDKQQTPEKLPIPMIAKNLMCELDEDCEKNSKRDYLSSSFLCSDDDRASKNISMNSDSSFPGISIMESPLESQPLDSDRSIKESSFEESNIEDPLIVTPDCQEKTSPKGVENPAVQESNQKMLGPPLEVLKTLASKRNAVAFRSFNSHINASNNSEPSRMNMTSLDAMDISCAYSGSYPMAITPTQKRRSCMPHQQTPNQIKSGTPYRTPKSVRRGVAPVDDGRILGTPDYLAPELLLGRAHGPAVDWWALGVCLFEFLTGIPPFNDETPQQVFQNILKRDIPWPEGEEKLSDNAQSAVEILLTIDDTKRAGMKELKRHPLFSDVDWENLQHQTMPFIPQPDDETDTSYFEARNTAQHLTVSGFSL
- experimental-protocol: HTRF-based kinase assay (HTRF KinEASE assay kit)
- Type: biochemical
- study-conditions: compound 1 µM
measurement-label: MASTL activity (%) HTRF (1 µM)

>  <molecule>
O=S(=O)(c1cccs1)N1CC2CCC1CN2c1nc(Nc2cc(C3CC3)[nH]n2)c2ccccc2n1 (centres unmarked) [compound 24d]

>  <measurement-label>
MASTL activity (%) HTRF (1 µM)

>  <unit-spec>
%

>  <observed-measurement>
32.9

$$$$
>  <molecule>
COc1ccc(CNc2nc(Nc3cc(C4CC4)[nH]n3)c3ccccc3n2)cc1 [4ad]

>  <measurement-label>
MASTL activity (%) HTRF (1 µM)

>  <unit-spec>
%

>  <observed-measurement>
65.7

$$$$
>  <molecule>
O=S(=O)(C1CCCCC1)N1CC2CCC1CN2c1nc(Nc2cc(C3CC3)[nH]n2)c2ccccc2n1 (centres unmarked) [compound 24b]

>  <measurement-label>
MASTL activity (%) HTRF (1 µM)

>  <unit-spec>
%

>  <observed-measurement>
24.8

$$$$
>  <molecule>
CC(C)S(=O)(=O)N1CC2CCC1CN2c1nc(Nc2cc(C3CC3)[nH]n2)c2ccccc2n1 (centres unmarked) [compound 24a]

>  <measurement-label>
MASTL activity (%) HTRF (1 µM)

>  <unit-spec>
%

>  <observed-measurement>
29.9

$$$$
>  <molecule>
N#Cc1ccccc1S(=O)(=O)N1CC2CCC1CN2c1nc(Nc2cc(C3CC3)[nH]n2)c2ccccc2n1 (centres unmarked) [compound 24e]

>  <measurement-label>
MASTL activity (%) HTRF (1 µM)

>  <unit-spec>
%

>  <observed-measurement>
10.8

$$$$

* * *

- Test system: MCF7 breast cancer cell lines
- experimental-protocol: Cell viability analysis, WST-8 assay, MCF7
- study-conditions: Homo sapiens, MCF7, 72 h, read-out: Cell viability (%) WST-8, MCF7 (1 µM), compound 1 µM, 72 hours

>  <molecule>
Cc1ccc(-c2nc3ccccc3s2)cc1Nc1nc(Nc2cc(C3CC3)[nH]n2)c2ccccc2n1

>  <assay-system>
MCF7 breast cancer cell lines

>  <unit-spec>
%

>  <viability at 1 µM>
100

$$$$
>  <molecule>
N#CCc1ccc(Nc2nc(NC3=NC(=O)CS3)c3ccccc3n2)cc1

>  <assay-system>
MCF7 breast cancer cell lines

>  <unit-spec>
%

>  <viability at 1 µM>
108

$$$$
>  <molecule>
Nc1ccc(Nc2nc(Nc3cc(C4CC4)[nH]n3)c3ccccc3n2)cc1

>  <assay-system>
MCF7 breast cancer cell lines

>  <unit-spec>
%

>  <viability at 1 µM>
32.8

$$$$
>  <molecule>
N#CCc1ccc(Nc2nc(Nc3ccccc3O)c3ccccc3n2)cc1

>  <assay-system>
MCF7 breast cancer cell lines

>  <unit-spec>
%

>  <viability at 1 µM>
49.3

$$$$
>  <molecule>
CC(C)C(=O)N1CC2CC1CN2c1nc(Nc2cn[nH]c2)c2ccccc2n1 (centres unmarked) [compound 28c]

>  <assay-system>
MCF7 breast cancer cell lines

>  <unit-spec>
%

>  <viability at 1 µM>
105

$$$$
>  <molecule>
CC(C)(C)OC(=O)NCCCNC(=O)c1ccc(Nc2nc(Nc3cc(C4CC4)[nH]n3)c3ccccc3n2)cc1

>  <assay-system>
MCF7 breast cancer cell lines

>  <unit-spec>
%

>  <viability at 1 µM>
75.8

$$$$
>  <molecule>
Cc1ccc(S(=O)(=O)N2CC3CC2CN3c2nc(Nc3cc(C4CC4)[nH]n3)c3ccccc3n2)cc1F (centres unmarked) [compound 15w]

>  <assay-system>
MCF7 breast cancer cell lines

>  <unit-spec>
%

>  <viability at 1 µM>
93.5

$$$$
>  <molecule>
CC(C)CN1CC2CC1CN2c1nc(Nc2cn[nH]c2)c2ccccc2n1 (centres unmarked) [compound 28e]

>  <assay-system>
MCF7 breast cancer cell lines

>  <unit-spec>
%

>  <viability at 1 µM>
97.3

$$$$
>  <molecule>
c1ccc2c(Nc3cc(C4CC4)[nH]n3)nc(N3CC4CCC3CN4)nc2c1 (centres unmarked)

>  <assay-system>
MCF7 breast cancer cell lines

>  <unit-spec>
%

>  <viability at 1 µM>
5.5

$$$$
>  <molecule>
O=S(=O)(c1ccc(F)cc1F)N1CC2CCC1CN2c1nc(Nc2cc(C3CC3)[nH]n2)c2ccccc2n1 (centres unmarked) [compound 24c]

>  <assay-system>
MCF7 breast cancer cell lines

>  <unit-spec>
%

>  <viability at 1 µM>
68.3

$$$$
>  <molecule>
Cc1cc(Nc2nc(N3CC4CC3CN4C(=O)c3ccccc3)nc3ccccc23)n[nH]1 (centres unmarked) [compound 27d]

>  <assay-system>
MCF7 breast cancer cell lines

>  <unit-spec>
%

>  <viability at 1 µM>
94.9

$$$$
>  <molecule>
CCNC(=O)c1ccc(Nc2nc(Nc3cc(C4CC4)[nH]n3)c3ccccc3n2)cc1

>  <assay-system>
MCF7 breast cancer cell lines

>  <unit-spec>
%

>  <viability at 1 µM>
66.6

$$$$
>  <molecule>
CC(C)(C)OC(=O)N1CC2(CCN(c3nc(Nc4cc(C5CC5)[nH]n4)c4ccccc4n3)CC2)C1

>  <assay-system>
MCF7 breast cancer cell lines

>  <unit-spec>
%

>  <viability at 1 µM>
109

$$$$
>  <molecule>
O=S(=O)(c1cccc(C(F)(F)F)c1)N1CC2CC1CN2c1nc(Nc2cc(C3CC3)[nH]n2)c2ccccc2n1 (centres unmarked) [compound 15u]

>  <assay-system>
MCF7 breast cancer cell lines

>  <unit-spec>
%

>  <viability at 1 µM>
107

$$$$
>  <molecule>
CC(C)(C)OC(=O)Cc1ccc(Nc2nc(Nc3cc(C4CC4)[nH]n3)c3ccccc3n2)cc1

>  <assay-system>
MCF7 breast cancer cell lines

>  <unit-spec>
%

>  <viability at 1 µM>
107

$$$$
>  <molecule>
N#Cc1cc(Cl)ccc1C1=CCN(c2nc(Nc3cc(C4CC4)[nH]n3)c3ccccc3n2)CC1

>  <assay-system>
MCF7 breast cancer cell lines

>  <unit-spec>
%

>  <viability at 1 µM>
48.4

$$$$
>  <molecule>
NCCNC(=O)c1ccc(Nc2nc(Nc3cc(C4CC4)[nH]n3)c3ccccc3n2)cc1

>  <assay-system>
MCF7 breast cancer cell lines

>  <unit-spec>
%

>  <viability at 1 µM>
87.6

$$$$

* * *

- assay-system: Recombinant GST-TAG-MASTL (Homo sapiens, UniProt Q96GX5)
- Construct: GST; purchased Thermo Fisher Scientific
- experimental-protocol: HTRF-based kinase assay (HTRF KinEASE assay kit)
- Type: biochemical

>  <molecule>
c1ccc2c(Nc3cc(C4CC4)[nH]n3)nc(N3CC4CCC3CN4)nc2c1 (stereo not shown)

>  <IC50 [nM]>
194

$$$$
>  <molecule>
c1ccc2c(Nc3cc(C4CC4)[nH]n3)nc(N3CC4CCC(C3)N4)nc2c1

>  <IC50 [nM]>
106

$$$$
>  <molecule>
N#Cc1ccc(Nc2nc(Nc3cc(C4CC4)[nH]n3)c3ccccc3n2)cc1

>  <IC50 [nM]>
625

$$$$
>  <molecule>
N#Cc1ccccc1S(=O)(=O)N1CC2CC1CN2c1nc(Nc2cc(C3CC3)[nH]n2)c2ccccc2n1 (stereo not shown) [compound 15v]

>  <IC50 [nM]>
52.7

$$$$

* * *

- assay-system: Recombinant GST-TAG-MASTL (Homo sapiens, UniProt Q96GX5)
- Construct: GST; purchased Thermo Fisher Scientific
- experimental-protocol: HTRF-based kinase assay (HTRF KinEASE assay kit)
- Assay type: biochemical
- study-conditions: compound 1 µM; read-out: MASTL activity (%) HTRF (1 µM)

>  <molecule>
Cc1cc(Cl)ccc1C1=CCN(c2nc(Nc3cc(C4CC4)[nH]n3)c3ccccc3n2)CC1

>  <activity at 1 µM (%)>
76.1

$$$$
>  <molecule>
FC(F)(F)c1ccc(C2=CCN(c3nc(Nc4cc(C5CC5)[nH]n4)c4ccccc4n3)CC2)cc1

>  <activity at 1 µM (%)>
55.8

$$$$
>  <molecule>
CC(C)(C)OC(=O)N1C2CCC1CN(c1nc(Nc3cc(C4CC4)[nH]n3)c3ccccc3n1)C2

>  <activity at 1 µM (%)>
32.2

$$$$
>  <molecule>
CC(C)(C)OC(=O)Nc1cccc(Nc2nc(Nc3ccc(CC#N)cc3)nc3ccccc23)c1

>  <activity at 1 µM (%)>
117

$$$$
>  <molecule>
N#CCc1ccc(Nc2nc(Nc3ccccc3O)c3ccccc3n2)cc1

>  <activity at 1 µM (%)>
121

$$$$
>  <molecule>
O=S(=O)(c1cccc(C(F)(F)F)c1)N1CC2CC1CN2c1nc(Nc2cc(C3CC3)[nH]n2)c2ccccc2n1 (centres unmarked) [compound 15u]

>  <activity at 1 µM (%)>
48.3

$$$$
>  <molecule>
CC(C)(C)OC(=O)c1ccc(Nc2nc(Nc3cc(C4CC4)[nH]n3)c3ccccc3n2)cc1

>  <activity at 1 µM (%)>
58

$$$$
>  <molecule>
Fc1ccccc1C1=CCN(c2nc(Nc3cc(C4CC4)[nH]n3)c3ccccc3n2)CC1

>  <activity at 1 µM (%)>
40.6

$$$$
